# system: T1, Biotinylated human integrin αvβ6 (ACROBiosystems, product number IT6-H82E4) (human, UniProt P06756 31-992; P18564 22-707, biotinylated (Avi tag at the C-terminus) ; Biotin on the Avi tag at the C-terminus of the αv chain; the tag is not in the letters.)
# T1 construct: Bought heterodimer; also called biotinylated integrin αvβ6; not shown: basic tail on the β6 chain
# T1 sequence (P06756 31-992 limits assumed, chain 1 of 2): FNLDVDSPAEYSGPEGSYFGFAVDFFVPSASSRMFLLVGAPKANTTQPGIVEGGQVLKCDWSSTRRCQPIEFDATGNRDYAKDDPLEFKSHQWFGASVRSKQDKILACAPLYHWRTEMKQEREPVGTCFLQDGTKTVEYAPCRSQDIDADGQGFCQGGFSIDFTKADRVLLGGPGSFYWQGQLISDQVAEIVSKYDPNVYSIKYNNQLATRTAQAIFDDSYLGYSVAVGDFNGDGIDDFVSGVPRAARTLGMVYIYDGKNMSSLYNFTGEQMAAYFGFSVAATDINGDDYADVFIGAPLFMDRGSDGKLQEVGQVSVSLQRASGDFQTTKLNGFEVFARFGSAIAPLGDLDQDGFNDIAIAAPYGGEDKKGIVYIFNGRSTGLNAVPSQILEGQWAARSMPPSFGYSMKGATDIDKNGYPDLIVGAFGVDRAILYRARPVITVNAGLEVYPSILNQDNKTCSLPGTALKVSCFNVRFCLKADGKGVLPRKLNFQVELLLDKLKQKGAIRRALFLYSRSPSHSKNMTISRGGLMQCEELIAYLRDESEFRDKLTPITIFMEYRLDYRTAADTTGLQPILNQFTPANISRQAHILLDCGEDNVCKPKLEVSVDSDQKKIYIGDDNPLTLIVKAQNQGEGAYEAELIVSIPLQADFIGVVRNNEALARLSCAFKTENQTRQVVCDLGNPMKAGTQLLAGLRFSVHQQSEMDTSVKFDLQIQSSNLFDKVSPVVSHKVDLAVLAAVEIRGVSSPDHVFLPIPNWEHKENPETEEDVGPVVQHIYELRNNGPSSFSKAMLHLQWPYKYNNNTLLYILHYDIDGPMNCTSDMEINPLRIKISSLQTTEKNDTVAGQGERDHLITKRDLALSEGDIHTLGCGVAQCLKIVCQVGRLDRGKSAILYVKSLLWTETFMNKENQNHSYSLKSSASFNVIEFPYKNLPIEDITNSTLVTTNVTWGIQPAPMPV
# T1 sequence (P18564 22-707 limits assumed, chain 2 of 2): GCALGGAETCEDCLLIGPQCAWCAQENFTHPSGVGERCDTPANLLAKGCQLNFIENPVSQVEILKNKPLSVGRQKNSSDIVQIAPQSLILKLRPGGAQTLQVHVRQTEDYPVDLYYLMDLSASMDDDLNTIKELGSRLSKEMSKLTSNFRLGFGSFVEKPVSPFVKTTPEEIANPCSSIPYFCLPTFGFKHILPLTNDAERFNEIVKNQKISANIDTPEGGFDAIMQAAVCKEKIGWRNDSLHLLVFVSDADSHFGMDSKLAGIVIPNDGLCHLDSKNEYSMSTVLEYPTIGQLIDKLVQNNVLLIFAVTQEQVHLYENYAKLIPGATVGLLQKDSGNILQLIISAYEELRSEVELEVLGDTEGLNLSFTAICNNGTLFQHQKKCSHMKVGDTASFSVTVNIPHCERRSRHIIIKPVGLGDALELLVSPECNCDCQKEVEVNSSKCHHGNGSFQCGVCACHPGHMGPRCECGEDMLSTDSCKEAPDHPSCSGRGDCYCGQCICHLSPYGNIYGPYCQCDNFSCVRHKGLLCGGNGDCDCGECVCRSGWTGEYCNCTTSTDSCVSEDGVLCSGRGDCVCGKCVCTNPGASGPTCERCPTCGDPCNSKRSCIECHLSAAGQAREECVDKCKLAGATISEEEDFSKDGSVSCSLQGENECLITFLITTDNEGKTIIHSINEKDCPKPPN
# assay_text: BLI (Octet RED96), biotinylated integrin αvβ6 on biosensor, antibody in solution
pKd: −log10 of the molar value.
The entries below come with measured pKd values attached.
measurement_label: pKd

binder="PSC antibody 1 (antibody, V domains shown, Human monoclonal IgG from a PSC patient, expressed in CHO cells) VH: QVQLVQSGAEVKKPGASVKVSCKASGHTFSSFGISWVRQAPGQGLEWMGWISAYNGNTNSAQKFQGRVTMTTDTSTSTAYMELRSLRSDDTAVYYCARDRGFRGDTAMIKGGMDVWGQGTTVTVSS VL: QSALTQPASVSGSPGQSITISCTGTSSDVGGYNYVSWYQQHPGKAPQLIIYDVSKRPSGVSNRFSGSRSGNTASLTISGLQAEDEADYYCSSYTSSSTYVFGTGTKVTVL" reported_measurement=8.05
binder="UC antibody 5 (antibody, V domains shown, Human monoclonal IgG from a UC patient, expressed in CHO cells) VH: QVQLVQSGAEVKKPGASVKVSCKASGHTFSSFGISWVRQAPGQGLEWMGWISAYNGNTNSAQKFQGRVTMTTDTSTSTAYMELRSLRSDDTAVYYCARDRGFRGDTAMIKGGMDVWGQGTTVTVSS VL: VLTQPPSVSVSPGQTASITCSGDKLGDKYACWYQQKSGQAPVLVIYQDSKRPSGIPERFSGSNSGNTATLTISGTQAMDEADYYCQAWDSSTALVFGGGTKLTVL" reported_measurement=8.08
binder="UC antibody 4 (antibody, V domains shown, Human monoclonal IgG from a UC patient, expressed in CHO cells) VH: QVQLVQSGAEVKKPGASVKVSCKASGYTFSSFGISWVRQAPGQGLEWMGWISAYNGNTNSAQKFQGRVTMTTDTSTSTAYMELRSLRSDDTAVYYCARDRGFRGDTAMIKGGMDVWGQGTTVTVSS VL: SYELTQPPSVSVSPGQTARITCSGDALPKQYAYWYQQKPGQAPVLVIYKDSERPSGIPERFSGSSSGTMATLTISGAQVEDEGDYYCSSTDSNSQRVFGGGTKLTVL" reported_measurement=8.50
